These measurements were taken from a collection of fitness landscapes (doi:10.1126/science.1257360).

B1: PhoQ; a variant is named by its letters at X, in order, P23837 (parent)
chain: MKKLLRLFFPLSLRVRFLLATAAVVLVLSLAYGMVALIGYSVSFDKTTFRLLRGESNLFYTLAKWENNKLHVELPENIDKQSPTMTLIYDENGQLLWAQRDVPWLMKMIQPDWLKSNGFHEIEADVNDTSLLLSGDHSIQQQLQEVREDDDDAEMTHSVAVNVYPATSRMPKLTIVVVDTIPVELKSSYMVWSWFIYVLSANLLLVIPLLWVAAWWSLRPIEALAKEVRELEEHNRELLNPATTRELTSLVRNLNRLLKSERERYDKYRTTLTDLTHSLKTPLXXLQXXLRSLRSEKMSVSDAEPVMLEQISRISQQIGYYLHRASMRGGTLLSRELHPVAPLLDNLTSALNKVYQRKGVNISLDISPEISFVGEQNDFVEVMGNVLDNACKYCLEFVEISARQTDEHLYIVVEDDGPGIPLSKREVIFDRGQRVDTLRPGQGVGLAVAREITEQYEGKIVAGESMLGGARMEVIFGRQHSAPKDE

- Variants of: B1
- ASSAY_INFO: enrichment ratio after two sorts for PhoP signalling (ratio (wild type AVST 3.29)); higher = more functional
- TEST_PARAMETERS: with PhoP (E. coli)
Over roughly 140,000 sequences, “enrichment ratio after two sorts for PhoP signalling” has its median near 0; the highest 2% begin near 11. The sample as a whole holds a higher share of the highest values than the screen did.
Entries and their enrichment ratio values follow.

- ALTERATION: "PLIK"
  enrichment ratio: "≤ 0.25"
- ALTERATION: "LKDC"
  enrichment ratio: "≤ 0.25"
- ALTERATION: "FGEF"
  enrichment ratio: "≤ 0.25"
- ALTERATION: "NIMF"
  enrichment ratio: "≤ 0.25"
- ALTERATION: "VAHN"
  enrichment ratio: "≤ 0.25"
- ALTERATION: "KTET"
  enrichment ratio: "≤ 0.25"
- ALTERATION: "MQSS"
  enrichment ratio: "≤ 0.25"
- ALTERATION: "VQKT"
  enrichment ratio: "≤ 0.25"
- ALTERATION: "NESA"
  enrichment ratio: "≤ 0.25"
- ALTERATION: "TPLI"
  enrichment ratio: "≤ 0.25"
- ALTERATION: "GPHN"
  enrichment ratio: "≤ 0.25"
- ALTERATION: "ILLG"
  enrichment ratio: "≤ 0.25"
